System: ANKK1;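 also: KINOMEscan kinase panel screen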
Settings: concentration: 1 μM, replicates: in singlicate; n = 1
Catalogue of %Inh readings, one per entry.
Recorded endpoint: %Inh (%)

* O=C(Nc1c(F)cccc1F)c1cc(C(=O)c2ccccc2F)c[nH]1 [GSK1326180] | 2
* Cc1ccc(O)cc1Nc1ccnc2ccc(C(C)(C)C)cc12 [GW856805] | 7
* COc1cc(Nc2ccnc3cc(-c4ccncc4)ccc23)cc(OC)c1OC.Cl [GW494610] | 0
* Cc1ccc(NC(=O)c2ccnc(N3CCCCC3)c2)cc1-c1ccc(C(=O)NCC2CC2)cc1 [GW775610] | 0
* O=C1NC(=O)C(c2ccccc2Cl)=C1Nc1cccc(Cl)c1 [SB-342409] | 0
* Nc1cccc(-c2ccc3c(N)n[nH]c3c2)c1 [GSK2193613] | 16
* CCn1c(-c2nonc2N)nc2c(-c3ccccc3)ncc(OCCCN)c21.O=C(O)C(F)(F)F.O=C(O)C(F)(F)F [GSK260205] | 0
* COC(=O)Nc1nc2ccc(Oc3ccc(NC(=O)Nc4cc(C(F)(F)F)ccc4F)cc3)cc2[nH]1.Cl [GW654607] | 13
* Nc1ncnc2scc(-c3ccc(NC(=O)Cc4cc(F)ccc4F)cc3)c12.O=C(O)C(F)(F)F [SB-731254-M] | 49
